experiment: NCI Yeast Anticancer Drug Screen. Data for the sgs1 mgt1 strain (AID 161); details: S. cerevisiae sgs1 mgt1 strain, at 5.0 µM (retest, dose inferred, filed as 0.5)
About 79,000 compounds went through this panel and 15% of them were active in at least one assay; those are over-represented in the sample as a whole. Calls of active or inactive are those of the source. No stated cut-off is given here; in the data, active means growth inhibition above about 70%; inactive means the rest.
Please reply with one of these outcomes: yes for active, no for inactive

Query block: Any idea what this test logged for N#CC1c2ccccc2C=CN1C(=O)CCCl (stereo not drawn) ?
Result block: no

Query block: Any idea what this test logged for N#CC(=C1SCS1)[N+](=O)[O-] ?
Result block: yes

Query block: Any idea what this test logged for C=[CH][Sn]([CH]=C)([O]c1cccc2cccnc12)[O]c1cccc2cccnc12 ?
Result block: yes
